B1: tRNA (parent)
chain: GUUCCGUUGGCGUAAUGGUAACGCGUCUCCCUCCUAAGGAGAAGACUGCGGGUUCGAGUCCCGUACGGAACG

variants of: B1; test: yeast fitness, log relative to wild type (ln ratio); higher = fitter; tRNA-Arg(CCU), competitive growth, 37 C, 1 M NaCl
# yeast fitness (ln) >= -0.3 gives satisfied, anything below gives not satisfied

Example entries and their recorded answers appear below.
1) G1A G6U A43C C66U A69G A70G
not satisfied
2) G6U C27U A43C C66U C71U
not satisfied
3) G1A U2G A70U C71U
satisfied
4) G6U C27U A43C C46U C66U
satisfied
5) G1A U2G G6U C46U A69G A70U C71U
satisfied

Is yeast fitness (ln) at least -0.3? Consider G1A U2C G6A C46U C66U A69G A70U
satisfied

Is yeast fitness (ln) at least -0.3? Consider G1A U2C G6A C27U A43C C46U C66U A69G A70G C71U
satisfied

Is yeast fitness (ln) at least -0.3? Consider G1A G6A C27U A43C
satisfied

Is yeast fitness (ln) at least -0.3? Consider U2C G6U A43C C46U A70U C71U
satisfied

Is yeast fitness (ln) at least -0.3? Consider U2G G6A C27U A43C C66A A70G C71U
satisfied

Is yeast fitness (ln) at least -0.3? Consider U2G G6U C27U A43C C46U C66A A69G A70U
not satisfied

Is yeast fitness (ln) at least -0.3? Consider G1A U2G G6U C27U C46U C66U A69G A70G C71U
not satisfied

Is yeast fitness (ln) at least -0.3? Consider U2G G6U C27U C66U A69G C71U
not satisfied

Just for reference, the RNAGym collection of RNA variant scans (doi:10.1038/s41586-018-0170-7) is where these values come from.
